experiment: COS7 lysate on small-molecule microarray, probe aHis, 635 nm (AID 1123); conditions: COS7 cell lysate, fluorescence, higher = more signal;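 also: z-score combines 667nm fluorescence intensity with signal-to-noise per printed compound spot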
Listed here: items and their measured composite z-score.
Lab note: record just the number, no unit beside it.

Recorded results for 6 compounds are shown here.
CC(C)(C)OC(=O)CC[C@@]1(C(=O)NCCN2CCOCC2)N=C(c2ccc(OCCCO)cc2)O[C@@H]1c1ccccc1N=[N+]=[N-] = 1.81
COCC(=C=CC[C@@H](O)c1ccccc1OCCO)C[C@@H](O)c1cc(Cl)cc(Cl)c1O = 1.24
C=C(COC)/C(=C/C[C@H](OC(=O)c1ccncc1)c1ccc(OCCO)cc1)c1cnc2ccccc2c1 = 1.46
COCCCNC(=O)[C@@]1(Cc2ccccc2)N=C(c2ccc(OCCCO)cc2)O[C@H]1c1ccccc1 = 2.9
COc1ccc(COC2OC[C@]3(C)[C@H]4C5=C(CN3C(=O)OC(C)(C)C)[C@H](C)C(CO)C(CO)C5CC[C@@H]24)cc1 (stereo partly drawn) = 0.814
C=CCNC(=O)[C@@H]1[C@H]2C(=O)O[C@H](c3ccccc3)[C@H](c3ccccc3)N2[C@H](c2ccc(OCCO)cc2)[C@@]12C(=O)Nc1ccc(C#Cc3ccc(OC)cc3)cc12 = 1.14

# composite z-score of Cc1ccc(S[C@]2(C(=O)NCC(C)C)CC(=O)N(Cc3cc(C(F)(F)F)cc(C(F)(F)F)c3)[C@@H]2c2ccc(CO)cc2I)cc1 = 0.234

# composite z-score of COCCOC(=O)N1C(=O)[C@@]2(c3cc(C#CCCO)ccc31)[C@H](C(=O)N1CCc3cc(OC)c(OC)cc3C1)[C@H]1C(=O)O[C@H](c3ccccc3)[C@H](c3ccccc3)N1[C@@H]2c1ccc(O)cc1 = 2.33

# composite z-score of O=C1OCC=C[C@H]2OC34C=CCN(c5ccc6ccccc6c5)C(=O)[C@H]3N(CCCCCCO)C(=O)[C@@H]4[C@@H]12 (stereo partly drawn) = 0.818

# composite z-score of O=C1O[C@H](c2ccccc2)[C@H](c2ccccc2)N2[C@H]1[C@@H](C(=O)O)[C@]1(C(=O)Nc3ccc(C#CCCO)cc31)[C@H]2c1ccc(O)cc1 = 0.651

* * *

Listed here: items and their measured composite z-score.
tested on: Neuregulin-1 EGF-like domain; experiment: binders of neuregulin-1 EGF-like domain, primary screen, biochemical, small-molecule microarray, 635 nm fluorescence (AID 1081); settings: small-molecule microarray binding, higher = more signal;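 also: binding of the protein to compounds printed on small-molecule microarray slides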

Recorded results for 6 molecules are shown here.
CC1(C)[C@@H]2CC(C(O)C3C=CC4C(=O)N(c5ccccc5)C(=O)C4N3Nc3ccccc3)=C[C@H]1C2 (stereo partly drawn) = 0.886
CN1C(=O)[C@]2(Cc3ccccc3)N=C(c3ccc(OCCCO)cc3)O[C@@H]2c2ccccc21 = 1.35
CCc1oc(CC[C@@H](CO)NC(=O)NCCn2cc(C3(O)CCCCC3)nn2)c(C(=O)OC)c1C(=O)OC = 1.23
C=CC[C@]1(C(=O)N2CCCCC2)N=C(c2ccc(OCCCO)cc2)O[C@H]1c1ccccc1 = 1.17
O=C1NC(=O)C2C1C=CC(C(O)c1cccc3ccccc13)N2Nc1ccccn1 (stereo not drawn) = 0.39
COc1ccc(C(=O)Nc2ccc(CN3C(=O)[C@@]4(O[C@@H](CC(=O)N5CCC[C@H]5CO)[C@H]([Si](C)(C)c5ccc(OC)cc5)[C@H]4C)c4ccccc43)cc2)cc1 = 1.16

# composite z-score of CN1C(=O)C2C=CC(C(O)c3ccccc3)N(Nc3ccccc3)C2C1=O (stereo not drawn) = 0.547

# composite z-score of COC(=O)C(CC#Cc1ccc2c(c1)[C@]1(C(=O)N2)[C@H](c2ccc(O)cc2)N2[C@H](c3ccccc3)[C@H](c3ccccc3)OC(=O)[C@H]2[C@@H]1C(=O)Nc1nc2ccccc2s1)C(=O)OC = 1.24

# composite z-score of [N-]=[N+]=NCc1ccccc1C[C@@]1(C(=O)NCC(O)CO)N=C(c2ccc(OCCCO)cc2)O[C@@H]1c1ccccc1N=[N+]=[N-] (stereo partly drawn) = 1

# composite z-score of CC(C)(C)OC(=O)CC[C@@]1(C(=O)NCC(O)CO)N=C(c2ccc(OCCCO)cc2)O[C@@H]1c1ccccc1N=[N+]=[N-] (stereo partly drawn) = 1.17

* * *

Listed here: items and their measured z-score.
biological target: Homeobox protein Hox-A13 (Mus musculus) (UniProt Q62424); assay: inhibitors of HoxA13-DNA binding, primary screen, biochemical, fluorescence polarization, labeled oligonucleotide (AID 1185); details: 15 min, higher = more signal, called active from +8 up or from −8 down
Sequence (Q62424 whole entry, looked up): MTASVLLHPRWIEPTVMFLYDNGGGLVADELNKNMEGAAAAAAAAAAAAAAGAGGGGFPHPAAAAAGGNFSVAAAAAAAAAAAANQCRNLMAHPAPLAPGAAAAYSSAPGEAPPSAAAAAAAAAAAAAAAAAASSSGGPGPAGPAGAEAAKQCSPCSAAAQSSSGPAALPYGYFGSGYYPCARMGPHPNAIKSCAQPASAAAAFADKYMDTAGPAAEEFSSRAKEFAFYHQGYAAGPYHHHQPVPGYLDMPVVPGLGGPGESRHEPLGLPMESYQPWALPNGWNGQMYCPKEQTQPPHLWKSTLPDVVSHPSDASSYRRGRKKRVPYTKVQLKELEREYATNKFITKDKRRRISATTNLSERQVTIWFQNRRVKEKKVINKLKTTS
Lab note: record just the number, no unit beside it.

Recorded results for 3 molecules are shown here.
CCOC(=O)C[C@H]1[C@H](OC(=O)c2cc3ccccc3oc2=O)[C@@H](NC(=O)C2CCCCC2)c2cc(OCCCO)ccc2N1C(=O)c1ccccc1 = -3.06
C=CC[C@@]1(C(=O)NCc2ccccc2)N=C(c2ccc(OCCCO)cc2)O[C@@H]1c1ccccc1N=[N+]=[N-] = -1.72
N#Cc1ccc(NN2C(C(O)c3c(F)cccc3Cl)C=CC3C(=O)N(c4ccccc4)C(=O)C32)cc1 (stereo not given) = 0.238

# z-score of Cc1ccc(S[C@]2(C(=O)NCCN3CCOCC3)CC(=O)N(Cc3ccccc3)[C@@H]2c2ccc(CO)cc2I)cc1 = -1.69

# z-score of CN(C)C(=O)[C@]1(Cc2ccccc2CN=[N+]=[N-])N=C(c2ccc(OCCCO)cc2)O[C@@H]1c1ccccc1CN=[N+]=[N-] = -0.212

* * *

Listed here: items and their measured composite z-score.
target: Dickkopf-related protein 1 (Homo sapiens) (UniProt O94907); test: DKK1 binders on small-molecule microarrays, primary screen, biochemical, small-molecule microarray, 635 nm fluorescence scan (AID 1106); details: DKK1 binding, higher = more signal;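 also: score merges emission near 667 nm with signal to noise over three replicate slides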
Sequence (O94907 whole entry, looked up): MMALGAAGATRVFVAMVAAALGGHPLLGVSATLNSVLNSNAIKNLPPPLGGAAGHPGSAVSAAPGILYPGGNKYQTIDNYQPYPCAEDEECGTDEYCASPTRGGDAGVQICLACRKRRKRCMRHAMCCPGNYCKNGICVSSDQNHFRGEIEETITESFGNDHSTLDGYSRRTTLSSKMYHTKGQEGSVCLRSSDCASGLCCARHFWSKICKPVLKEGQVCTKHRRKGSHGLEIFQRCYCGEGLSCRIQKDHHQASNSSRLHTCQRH
Lab note: record just the number, no unit beside it.

Recorded results for 10 compounds are shown here.
CCOc1cc(C(O)C2C=CC3C(=O)N(c4ccccc4)C(=O)C3N2Nc2ccccc2)ccc1O (centres undefined) = -0.832
COCCOC(=O)N1C(=O)[C@@]2(c3cc(C#CCCO)ccc31)[C@H](c1ccc(OCCO)cc1)N1[C@H](c3ccccc3)[C@H](c3ccccc3)OC(=O)[C@H]1[C@@H]2C(=O)N1CCN(c2ncccn2)CC1 = 0.783
COCCOC(=O)N1C(=O)[C@@]2(c3cc(C#CC4=CCCCC4)ccc31)[C@H](C(=O)N1CCc3cc(OC)c(OC)cc3C1)[C@H]1C(=O)O[C@H](c3ccccc3)[C@H](c3ccccc3)N1[C@@H]2c1ccc(OCCO)cc1 = 0.8
C=CCNC(=O)[C@H]1[C@@H]2C(=O)O[C@@H](c3ccccc3)[C@@H](c3ccccc3)N2[C@@H](c2ccc(OCCO)cc2)[C@]12C(=O)N(C(=O)OCCOC)c1ccccc12 = 0.497
CCCCC(O)C1C=CC2C(=O)N(c3ccccc3)C(=O)C2N1Nc1ccccc1F (centres undefined) = -0.683
COCCOC(=O)N1C(=O)[C@@]2(c3cc(C#CC4=CCCCC4)ccc31)[C@H](C(N)=O)[C@H]1C(=O)O[C@H](c3ccccc3)[C@H](c3ccccc3)N1[C@@H]2c1ccc(OCCO)cc1 = 0.553
C=C/C=C/[C@H]1C(=C)CN([C@@H](Cc2ccccc2)C(=O)OC)[C@@H]1[C@H](O)Cc1ccccc1 = -0.306
Cc1ccc(S[C@]2(C(=O)NCCN3CCOCC3)CC(=O)N(Cc3ccccc3Cl)[C@@H]2c2ccc(CO)cc2)cc1 = -0.844
CN(C)CCCNC(=O)[C@@]1(c2ccc([N+](=O)[O-])cc2)CC(=O)N(C2CCCCC2)[C@@H]1c1ccc(CO)cc1I = -0.212
COc1ccc(C(O)C2C=CC3C(=O)N(C)C(=O)C3N2N2CCCCC2)c2ccccc12 (centres undefined) = -0.312

# composite z-score of COC(=O)c1c(CC[C@@H](CO)NC(=O)N2CCC[C@H]2Cn2cc(-c3ccccn3)nn2)oc(C(C)=O)c1C(=O)OC = -0.17

# composite z-score of O=C1[C@H]2C=C(Br)[C@H](C[C@@H]2OCCCCO)[C@@]12CO2 = 0.438

* * *

experiment: basal MM1S mitochondrial membrane potential changes, profiling panel, cell-based, JC-1 fluorescence, 24 h, 100 nL compound (AID 1170); conditions: higher = more signal; also: test concentration not given here
measurement-type: z-score
Lab note: record just the number, no unit beside it.

Recorded results for 10 compounds are shown here.
CC(C)(C)OC(=O)CC[C@@]1(C(=O)NCC(O)CO)N=C(c2ccc(OCCCO)cc2)O[C@@H]1c1ccccc1N=[N+]=[N-] (some centres not stated) = -0.884
COc1cc2c(cc1O)C=[N+](Cc1cccc(OC(F)(F)F)c1)CC2 = -0.471
CC(C)(C)OC(=O)CC[C@@]12N=C(c3ccc(OCCCO)cc3)O[C@@H]1c1ccccc1N(CCS(=O)(=O)c1ccccc1)C2=O = -1.13
COc1ccc(CCN2C(=O)[C@@]3(Cc4ccccc42)c2ccccc2C(=O)N(Cc2ccccc2C(F)(F)F)[C@H]3c2ccc(CO)cc2)cc1 = -1.59
C=CCNC(=O)[C@H]1[C@@H]2C(=O)O[C@@H](c3ccccc3)[C@@H](c3ccccc3)N2[C@@H](c2ccc(O)cc2)[C@]12C(=O)N(C(=O)OCCOC)c1ccc(C#CCNC(N)=O)cc12 = 0.179
C[N+](C)(C)CCCCNC(=O)[C@H]1C[C@H]2C(=O)N[C@@H](Cc3ccccc3)C(=O)N2[C@H]1c1ccc(O)cc1 = -1.13
CCOC(=O)[C@H]1CC=C2CC1C(=O)N1CCC[C@@H]1[C@@H]2O[Si](C)(C)C(C)(C)C (some centres not stated) = 0.167
N#Cc1ccc(NN2C(C(O)c3c(F)cccc3Cl)C=CC3C(=O)N(c4ccccc4)C(=O)C32)cc1 (configuration not stated) = -0.0893
CCCC[C@@H]1C[C@H]1[C@@H](NC(=O)c1ccco1)c1ccc(C(=O)OC)cc1 = -1.19
COc1ccc(CCNC(=O)[C@@]2(Sc3ccc(C)cc3)CC(=O)N(C3CCCCC3)[C@@H]2c2ccc(CO)cc2I)cc1 = -1.33

# z-score of COc1ccc(C(=O)Nc2ccc(CN3C(=O)[C@@]4(O[C@@H](CCn5cc([C@H](O)c6ccccc6)nn5)[C@H]([Si](C)(C)c5ccc(OC)cc5)[C@H]4C)c4ccccc43)cc2)cc1 = -2.26

# z-score of C=CCC(OC(C)=O)[C@@H]1[C@@H](N(Cc2ccc(-c3cccc(C(F)(F)F)c3)o2)C(=O)c2ccc(-c3ccccc3)cc2)c2cc(OCCCO)ccc2N1C(=O)c1ccc(-c2ccccc2)cc1 (some centres not stated) = 0.872
